Measurement Label: melting point

{"Molecule": "CCCCCCOc1ccc2c(c1)c(CC(=O)O)c(C)n2Cc1ccc(Cl)cc1", "melting point": "148 to 150 °C"}
{"Molecule": "O=C(O)c1cc(Br)cc2c1NCCS2(=O)=O", "melting point": "250 to 251 °C"}
{"Molecule": "CC(C)(C)N1CC(=O)Nc2ccc(I)cc2C1=O", "melting point": "230 to 232 °C"}
{"Molecule": "C=CCn1nc(-c2ccc(S(C)(=O)=O)cc2)c(-c2ccc(F)cc2)c1C(F)(F)F", "melting point": "116 to 119 °C"}
{"Molecule": "FC(F)(F)c1ccccc1NCC1=NNCCN1", "melting point": "97 to 98 °C"}
{"Molecule": "CSc1[nH]nc(-c2ccc(Cl)cc2F)c1C", "melting point": "88 to 90 °C"}
{"Molecule": "Cc1cc2c(cc1Cl)N(C)C(=O)C2(NC(=O)CN1CCN(C)CC1)c1ccc(Cl)cc1 (configuration not stated)", "melting point": "217 to 219 °C"}
{"Molecule": "CC(=O)Nc1cc(Br)ccc1S(C)(=O)=O", "melting point": "157 to 160 °C"}
{"Molecule": "Cc1oc(-c2ccco2)nc1CCc1ccc(CCCCC2OC(=O)NC2=O)cc1 (configuration not stated)", "melting point": "140 to 141 °C"}
{"Molecule": "CCNc1ccc(C(=O)OC)cc1", "melting point": "132 to 135 °C"}

Req: // melting point lookup, key: CN(C)CC1CCc2[nH]c3c(c2C1=O)CCC3 (configuration not stated)
Resp: 164 to 165 °C

Req: For the molecule shown here, Nc1cc(=O)n(Cc2ccc(Cl)cc2Cl)[nH]1 , give the reported melting point.
Resp: 189 °C
